So I've got a bunch of binders here, and I need their hu:mu ratio values.
- study-system: T1, His-tagged human B7-H3 (human, UniProt Q5ZPR3-2 29-245, limits assumed)
- T1 construct: Bought His-tagged protein coated on the ELISA plate; also called hu B7-H3; CD276
- T1 sequence (looked up): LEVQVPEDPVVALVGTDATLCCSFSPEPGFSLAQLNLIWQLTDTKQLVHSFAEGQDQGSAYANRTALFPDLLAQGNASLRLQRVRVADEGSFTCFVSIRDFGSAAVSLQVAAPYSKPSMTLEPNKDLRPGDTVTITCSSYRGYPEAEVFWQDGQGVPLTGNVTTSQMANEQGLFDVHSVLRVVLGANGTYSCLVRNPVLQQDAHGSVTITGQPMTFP
- protocol-summary: ELISA OD450 on hu B7-H3 over OD450 on mu B7-H3
Give bare numbers.

binder: 40511p1.2.A12 (scFv, V domains shown, Tested as scFv-Fc (Expi293 supernatant); also called 40511p1.2.Al2) VH: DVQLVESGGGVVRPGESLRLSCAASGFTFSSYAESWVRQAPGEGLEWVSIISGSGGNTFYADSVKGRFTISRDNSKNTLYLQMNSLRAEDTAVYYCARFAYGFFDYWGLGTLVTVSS VL: EIVLTQSPGTLSVSPGERATLSCRASQTVGSKLAWYQQKPGQPPSLLIYDASTRATGIPDRFSGSGSGTDFTLTISSLQSEDFAVYYCQQYRNWPPLTFGGGTKVEIK
recorded-result: 1.25

Look at each binder and report its hu:mu ratio.
1. 40633p1.1.G5 (scFv, V domains shown, Tested as scFv-Fc (Expi293 supernatant)) VH: EVQLLESGGGLVQPGGSLRLSCAASGFIVNYYGMSWVRQPPGKGLEWVSAIKQDGSEKYYADSVKGRFTISRDNSKTTLYLQMNSLRAEDTAVYYCARHWNDYSNGMNVWGQGTTVTVSS VL: QSVLTQPPSASGTPGQRVTISCSGSWSNIGSYNSHWYQKLPGTAPKLLIYTTDRRPSGVPDRFSGSKSGTSASLAISGLQSEDEADYYCGTWDDSLNVWVFGGGTKLTVL
2. 40633p1.1.F2 (scFv, V domains shown, Tested as scFv-Fc (Expi293 supernatant)) VH: EVQLLESGGGLVQPGGSLRLSCVASGLTFNGFAMTWVRQAPGKGLEWVSGISWNSGSIYYADSVKGRFTISRDNSKNTVYLQMSSLRAEDTAIYYCAKNWNDYYNSMDVWGQGTTVTVSS VL: QSVLTQPPSASGTPGQRVTISCSGSRSNIGTKYVYWYQQFPGTAPKLLIYTTDRRPSGVPDRFSGSKSGTSASLAISGLQSEDEADYYCSAWDDRLNAWVFGGGTKLTVL

(A)
1. 3.09
2. 1.47
